- measured-target: Tau40 P301L protein (human)
- assay-name: cell-based or functional assay
Square brackets hold non-standard residues; d marks the D form. Ends that are not written are not given here.
Exercise: state measured IC50, Tau40 assay (ThT) for each of the binders provided.
Note to self: number, then unit, no commentary.

As a guide, the following entries are already answered.
binder="[dW][dR][dL][dK][dV][dR][dW] [wrlkvrw (PEPTIDE ID NO: 289)]" outcome_measure="IC50, Tau40 assay (ThT)" meas_value="1770 nM"
binder="[dW][dL][dK][dI][dR][dI][dH][dY] [wlkirihy (PEPTIDE ID NO: 198)]" outcome_measure="IC50, Tau40 assay (ThT)" meas_value="690 nM"
binder="[dR][dL][dK][dI][dR][dI][dH][dY] [rlkirihy (PEPTIDE ID NO: 451)]" outcome_measure="IC50, Tau40 assay (ThT)" meas_value="510 nM"

Please turn your attention to the following entry.
Q) Hello, please tell me recorded IC50, Tau40 assay (ThT) for this one: [dW][dR][dL][dQ][dV][dR][dW] [wrlqvrw (PEPTIDE ID NO: 280)]
A) 1600 nM
